Let's look at some compounds and their measured LDH release cytotoxicity.
# Test system: HepaRG
# ASSAY OVERVIEW: LDH release cytotoxicity, % of total lysis control; higher = more cytotoxic
# EXPERIMENTAL PARAMETERS: 31.6228 µM; 48 h
PROPERTY NAME: LDH release cytotoxicity (%)

[[record]]
compound = "CCCCC(CC)COP(=O)(OCC(CC)CCCC)OCC(CC)CCCC (configuration not stated) [Tris(2-ethylhexyl) phosphate]"
obs_value = -0.783

[[record]]
compound = "CC(=O)SC1CC2=CC(=O)CCC2(C)C2CCC3(C)C(CCC34CCC(=O)O4)C12 (configuration not stated) [Spironolactone]"
obs_value = -0.441

[[record]]
compound = "NC(=O)N1C(=O)C(C(=O)c2cc(Cl)cs2)c2cc(F)c(Cl)cc21 (configuration not stated)"
obs_value = 64.6

[[record]]
compound = "CCOP(=S)(OCC)SCSCC [Phorate]"
obs_value = -1.22

[[record]]
compound = "CN(C)c1ccc(N=NS(=O)(=O)O)cc1 [Fenaminosulf]"
obs_value = -3.39

[[record]]
compound = "COC(=O)C=C(C)OP(=O)(OC)OC [Mevinphos]"
obs_value = -1.3

[[record]]
compound = "O=C1CCC(C2CCCCC2)CC1 [4-Cyclohexylcyclohexanone]"
obs_value = 0.205

[[record]]
compound = "c1ccc2c(c1)oc1ccccc12 [Dibenzofuran]"
obs_value = -0.819

[[record]]
compound = "NCCO [Ethanolamine]"
obs_value = -0.101

[[record]]
compound = "OCCCBr [3-Bromo-1-propanol]"
obs_value = -0.26

[[record]]
compound = "O=C(Nc1ccccc1)Nc1cnns1 [Thidiazuron]"
obs_value = -0.0499

[[record]]
compound = "C[N+](C)(C)CC1CO1 (configuration not stated) [Glycidyl trimethylammonium chloride]"
obs_value = -0.342

[[record]]
compound = "CCCC(=O)O [Butanoic acid]"
obs_value = -0.26

[[record]]
compound = "COC(=O)c1ccc(O)cc1 [Methylparaben]"
obs_value = -0.515

[[record]]
compound = "COc1ccc(-c2ccccc2)cc1NNC(=O)OC(C)C [Bifenazate]"
obs_value = -0.468

[[record]]
compound = "N#CC(CCc1ccc(Cl)cc1)(Cn1cncn1)c1ccccc1 (configuration not stated) [Fenbuconazole]"
obs_value = 5.08

[[record]]
compound = "COc1cc(-c2ccc(N)c(OC)c2)ccc1N [3,3'-Dimethoxybenzidine]"
obs_value = -2.12

